# experiment-summary: in vitro
# setup-conditions: human, hela cells, % viability
reported-endpoint: viability at 28.5 h, 10 µM (%)

>>> numeric_value("CCOC(=O)C1CSCCN1C(=O)c1cc(C)n(-c2nccs2)c1C (stereo not shown)")
75
>>> numeric_value("COc1ccccc1CC(=O)Nc1ccc(-c2nnc(-c3ccc(C)cc3)o2)cc1")
105
>>> numeric_value("CC(C)NC(=O)NC[C@H]1C[C@@H]2CCN1C[C@@H]2c1cc(-c2ccccc2)nn1C")
84.5
>>> numeric_value("COc1ncc(-c2cncc(N3CCN(c4ccc(OC)c(OC)c4)CC3)n2)c(OC)n1")
89.5
>>> numeric_value("N#Cc1ccc(-c2cccs2)nc1SCC(=O)Nc1ccc([N+](=O)[O-])cc1")
87.5
>>> numeric_value("O=C1CC(N2CCN(c3ccccn3)CC2)C(=O)N1CCc1ccccc1 (stereo not shown)")
77.9
>>> numeric_value("Cc1cc(NC(=O)c2ccc3c(c2)OCO3)nc2c1c(=O)oc1ccccc12")
117
>>> numeric_value("COc1cc(CNc2ccc(N3CCCCC3)cc2)cc(Cl)c1OCc1cccs1")
101
>>> numeric_value("Cc1cccc(-n2c(SCC(=O)Nc3ccc(Br)cc3F)nnc2-c2ccccc2)c1")
98.9
>>> numeric_value("CCOC(=O)c1c(NS(=O)(=O)c2ccc(NC(C)=O)cc2)sc2c1CCCC2")
90.3
>>> numeric_value("Cn1c(=O)c2c(nc(S)n2CCCc2ccccc2)n(C)c1=O")
105
>>> numeric_value("CC(C)CSc1nnc(-c2ccccc2F)n1CC(C)C")
95.8
>>> numeric_value("CC1CCCN(c2nc3nc[nH]c(=O)c3s2)C1 (stereo not shown)")
83.4
>>> numeric_value("Cc1cc(Cl)c(S(=O)(=O)NCc2ccccc2)cc1OCC(N)=O")
104
>>> numeric_value("O=C(O)c1ccc(N2C(=O)CC(N3CCN(c4cccc(C(F)(F)F)c4)CC3)C2=O)cc1 (stereo not shown)")
93.3
>>> numeric_value("O=C(NCC(O)c1ccc2ccccc2c1)c1cnc(-c2ccccc2)c(-c2ccncc2)c1 (stereo not shown)")
91
>>> numeric_value("CN(Cc1ccccc1)S(=O)(=O)c1ccccc1[N+](=O)[O-]")
92.3
>>> numeric_value("O=C(O)C(Cc1ccccc1)N1C(=O)/C(=C/c2cccc([N+](=O)[O-])c2)SC1=S (stereo not shown)")
98.4
>>> numeric_value("O=C1CN(C(=O)CCn2c(C(F)(F)F)cc3cccnc32)CCN1")
92.8
>>> numeric_value("COc1ccc2nc(NC(=O)c3ccc4c(c3)OCCO4)sc2c1")
103
>>> numeric_value("COc1ccccc1OCCOc1ccc(/C=N/n2cnnc2)cc1")
106
>>> numeric_value("CC[C@@H](Cn1nc2c(cc1=O)CCCCC2)NC(=O)c1ccco1")
78.2
>>> numeric_value("O=C(NCc1ccccc1F)c1cccc(CN2C(=O)CSC2=O)c1")
100
>>> numeric_value("O=C(O)CC(=Cc1csc(-c2ccc(Cl)cc2)n1)c1nc2ccccc2o1")
104
>>> numeric_value("COc1ccc(F)c(CN2CCC3(CCCNC3=O)CC2)c1")
102
>>> numeric_value("N=C(N)NC1=NC(=O)C(CC(=O)Nc2ccc(Oc3ccccc3)cc2)S1 (stereo not shown)")
105
>>> numeric_value("CCOC(=O)c1ccc(N/C=C(\\C#N)c2nc(-c3cc4ccccc4oc3=O)cs2)cc1")
83.1
>>> numeric_value("CCOc1ccc(N2C(=O)CC(N3CCN(CCc4ccccn4)CC3)C2=O)cc1 (stereo not shown)")
95.8
>>> numeric_value("CCN(Cc1ccccc1)c1ccc(C2NC(=O)NC(O)(C(F)(F)F)C2C(=O)c2cccnc2)cc1 (stereo not shown)")
91.7
>>> numeric_value("OC(CNCc1ccc2c(c1)OCO2)CSc1ccccc1 (stereo not shown)")
101
>>> numeric_value("O=C(NCc1ccc2c(c1)OCO2)C1CN(S(=O)(=O)c2ccccc2)CCN1S(=O)(=O)c1ccccc1 (stereo not shown)")
102
>>> numeric_value("Cn1c(=O)n(CC(=O)N2CCC(C(=O)NC(c3ccccc3)c3ccccn3)CC2)c2ccccc21 (stereo not shown)")
96
>>> numeric_value("CN1CCC(N(C)C(=O)NCC2COc3ccccc3O2)C1 (stereo not shown)")
100
>>> numeric_value("CC(C)(C)c1ccc(-n2cc(-c3ccc(F)cc3)nn2)cc1")
103
>>> numeric_value("Cc1ccc2nc(C)c(CCC(=O)O)c(O)c2c1")
91.8
>>> numeric_value("Oc1cccc2ccc(/C=C/c3ccc(-c4ccccc4Cl)o3)nc12")
97.7
>>> numeric_value("Cc1nccn1CC1(O)CCN(CC2=CCC3CC2C3(C)C)CC1 (stereo not shown)")
94.6
